Entry source: paper PMC12377726

- subject of test: eOD-GT8 (engineered outer domain germline-targeting version 8), monomer (HIV-1 gp120 engineered outer domain, …)

binder | binding result
G001_gp1_V10_VRC01c_167 (antibody, V domains shown) VH: QVQLVQSGAEVKKPGASVKVSCKASGYTFTGYYMHWVRQAPGQGLEWMGWINPNSGGTNYAQKFQGRVTMTRDTSITTAYMELTRLISDDTAVYYCASPASIPAAGSFAFDIWGQGTMVTVSS VL: EIVLTQSPGTLSLSPGERATLSCRASQSVGSSYLTWYQQKPGQAPRLLIYGASSRATGIPDRFSGSGSGTDFTLTISGLEPEDFAVYYCQQYETFGQGTKVEIK | binds
G001_gp1_V10_VRC01c_2021-0099 (antibody, V domains shown) VH: QVQLVQSGAEVKKPGASVKVSCKASGNTFTDYYMYWVRQAPGQGLEWMGWINPNSGGTNYAQKFQGRVTMTRDTSISTAYMELSRLRSDDTAVYYCAGRHYDDSSGYKAFQHWGQGTLVTVSS VL: DIQMTQSPSTLSASVGDRVTITCRASQSFSSWLAWYQQKPGKAPKLLIYKASSLESGVPSRFSGSGSGTEFTLTISSLQPDDVATYYCQQYETFGQGTKVEIK | binds
G001_gp1_V10_VRC01c_169 (antibody, V domains shown) VH: QVHLVQSGAEVKKPGASVKVSCKASGYTFTDDYIHWLRQAPGQGLEWMGWINPYSGGTNYAQKFQGRVTMTRDTSINTAYMELSRLRSDDTAVYYCARYQSTFYFDYWGQGTLVTVSS VL: DFQMTQSPSTLSASVGDRVTITCRASQSLSSWLAWYQQKPGKAPKLLIYKASSLESGVPSRFSGSGSGTEFTLTISSLQPDDSATFYCQQYETFGQGTKLEIK | binds
